- ASSAYED SYSTEM: SARS-CoV-2 3CLpro (Severe acute respiratory syndrome coronavirus 2, UniProt P0DTD1)
- ASSAY INFO: biochemical
- Format: biochemical
- Design: unit not given here
- CONDITION SUMMARY: sheet LOPAC_screen_w_protease; primary screen of LOPAC1280 at 5 µM with protease; replicate 1
Label criterion not met if Replicate_1 falls below 5; label criterion met in every other case.

- COMPOUND: "CCCCCCCCCCCCCCCC(=O)NCC(COP(=O)([O-])OCC[N+](C)(C)C)OCC (racemic)"
  ASSIGNED CLASS: "criterion met"
- COMPOUND: "C/C=C1\\C(=O)C[C@H]2[C@@H]3CCC4=CC(=O)CC[C@]4(C)[C@H]3CC[C@]12C [(Z)-Gugglesterone]"
  ASSIGNED CLASS: "criterion met"
- COMPOUND: "N/C(=N\\C(=O)c1nc(Cl)c(N)nc1N)NCc1ccc(Cl)c(Cl)c1"
  ASSIGNED CLASS: "criterion met"
- COMPOUND: "COc1cc(C=C(C#N)C#N)cc(O)c1O"
  ASSIGNED CLASS: "criterion not met"
- COMPOUND: "O=C(O)c1cc(=O)c2c(Cl)cc(Cl)cc2[nH]1"
  ASSIGNED CLASS: "criterion not met"
- COMPOUND: "CCCC(C(=O)OCCN(CC)CC)(c1ccccc1)c1ccccc1.Cl [SKF-525A hydrochloride]"
  ASSIGNED CLASS: "criterion not met"
- COMPOUND: "CC[C@@H]1Cc2cc(O)ccc2C2=C1c1ccc(O)cc1C[C@H]2CC"
  ASSIGNED CLASS: "criterion not met"
- COMPOUND: "CN1CCc2cc(Cl)c(O)cc2[C@@H](c2ccccc2)C1.Cl [R(+)-SCH-23390 hydrochloride]"
  ASSIGNED CLASS: "criterion not met"
- COMPOUND: "Cl.FC(F)(F)c1cc(CO[C@H]2CCCN[C@H]2c2ccccc2)cc(C(F)(F)F)c1 [L-733,060 hydrochloride]"
  ASSIGNED CLASS: "criterion not met"
- COMPOUND: "CC[C@@]1(O)C(=O)OCc2c1cc1n(c2=O)Cc2cc3ccccc3nc2-1 [(S)-(+)-Camptothecin]"
  ASSIGNED CLASS: "criterion not met"
- COMPOUND: "CCCN1CCOC2c3cc(O)ccc3OCC21.Cl (racemic) [(±)-PD 128,907 hydrochloride]"
  ASSIGNED CLASS: "criterion not met"
- COMPOUND: "O=C(Nc1cc(C(=O)Nc2ccc(S(=O)(=O)[O-])cc2S(=O)(=O)[O-])cc(C(=O)Nc2ccc(S(=O)(=O)[O-])cc2S(=O)(=O)[O-])c1)Nc1cc(C(=O)Nc2ccc(S(=O)(=O)[O-])cc2S(=O)(=O)[O-])cc(C(=O)Nc2ccc(S(=O)(=O)[O-])cc2S(=O)(=O)[O-])c1.[Na+].[Na+].[Na+].[Na+].[Na+].[Na+].[Na+].[Na+] [NF449 octasodium salt]"
  ASSIGNED CLASS: "criterion not met"
- COMPOUND: "O=C([O-])c1cc2cc(Cc3cccnc3)ccc2o1.[Na+] [Furegrelate sodium]"
  ASSIGNED CLASS: "criterion met"

* * *

- ASSAYED SYSTEM: SARS-CoV-2 3CLpro (Severe acute respiratory syndrome coronavirus 2)
- ASSAY INFO: biochemical
- Type: biochemical
- Set-up: unit not given here
- CONDITION SUMMARY: sheet LOPAC_screen_w_protease; LOPAC1280 at 5 µM; replicate 1
Label 0.0 if Replicate_1 falls below 1; label 1.0 in every other case.

- COMPOUND: "N[C@@H](CCCC(=O)O)C(=O)O"
  ASSIGNED CLASS: 1.0
- COMPOUND: "CC1(C)CCC=[N+]1[O-] [5,5-Dimethyl-1-pyrroline-N-oxide]"
  ASSIGNED CLASS: 0.0
- COMPOUND: "CNCCc1ccc(O)c(O)c1.Cl [N-Methyldopamine hydrochloride]"
  ASSIGNED CLASS: 0.0
- COMPOUND: "Br.CCSC(=N)N [S-Ethylisothiourea hydrobromide]"
  ASSIGNED CLASS: 1.0
- COMPOUND: "CCCc1c(-c2ccc(O)cc2)nn(-c2ccc(O)cc2)c1-c1ccc(O)cc1"
  ASSIGNED CLASS: 1.0
- COMPOUND: "COc1ccccc1N1CCNCC1.Cl"
  ASSIGNED CLASS: 1.0
- COMPOUND: "CN1[C@@H](CC(=O)c2ccccc2)CCC[C@H]1C[C@H](O)c1ccccc1.Cl [alpha-Lobeline hydrochloride]"
  ASSIGNED CLASS: 1.0
- COMPOUND: "Cn1cc(C(=O)OCC2CCN(CCNS(C)(=O)=O)CC2)c2ccccc21"
  ASSIGNED CLASS: 1.0
- COMPOUND: "O=C(O)C=Cc1c[nH]cn1"
  ASSIGNED CLASS: 1.0
- COMPOUND: "CC(C)(C)NCC(O)c1cc(O)cc(O)c1.CC(C)(C)NCC(O)c1cc(O)cc(O)c1.O=S(=O)(O)O (stereo not drawn) [Terbutaline hemisulfate]"
  ASSIGNED CLASS: 0.0
- COMPOUND: "CN(CCOc1ccc(C[C@H](Nc2ccccc2C(=O)c2ccccc2)C(=O)O)cc1)c1ccccn1"
  ASSIGNED CLASS: 1.0
- COMPOUND: "CC(C)(C)NCC(O)COc1cccc2[nH]c(=O)[nH]c12.Cl (racemic) [(±)-CGP-12177A hydrochloride]"
  ASSIGNED CLASS: 1.0
- COMPOUND: "O=C(Cc1ccc(Cl)c(Cl)c1)OCCN1CCCC1.O=C(O)C(=O)O [AC 915 oxalate]"
  ASSIGNED CLASS: 1.0
- COMPOUND: "CNC(=O)c1cc2c(cn1)[nH]c1ccccc12 [N-Methyl-beta-carboline-3-carboxamide]"
  ASSIGNED CLASS: 1.0
- COMPOUND: "COc1cc2nc(N3CCN(C(=O)OCc4ccccc4)C(C(=O)NC(C)(C)C)C3)nc(N)c2cc1OC (stereo not drawn)"
  ASSIGNED CLASS: 1.0
- COMPOUND: "CC(C)(CO)Cc1cc(C(C)(C)C)c(O)c(C(C)(C)C)c1"
  ASSIGNED CLASS: 0.0
- COMPOUND: "Nn1nnc2ccccc21"
  ASSIGNED CLASS: 1.0

* * *

- ASSAYED SYSTEM: SARS-CoV-2 3CLpro (Severe acute respiratory syndrome coronavirus 2)
- ASSAY INFO: biochemical
- Type: biochemical
- CONDITION SUMMARY: 4 h, LOPAC1280 primary screen with protease, 5 µM compound, replicate 2; read-out: Replicate_2 (LOPAC_screen_w_protease)
Structures can show the parent of a compound that is named as a salt.
inhibition at 5 µM for assorted compounds

- COMPOUND: "O=C(CCCN1CCC2(CC1)C(=O)NCN2c1ccccc1)c1ccc(F)cc1 [Spiperone hydrochloride]"
  ASSAYED SYSTEM: "SARS-CoV-2 3CLpro (Severe acute respiratory syndrome coronavirus 2)"
  inhibition at 5 µM: "1.15%"
- COMPOUND: "CCC1(C)CC(=O)NC1=O (stereo not drawn) [Ethosuximide]"
  ASSAYED SYSTEM: "SARS-CoV-2 3CLpro (Severe acute respiratory syndrome coronavirus 2)"
  inhibition at 5 µM: "-0.21%"
- COMPOUND: "CC1(C(=O)O)C2CCC(O2)C1(C)C(=O)O (stereo not drawn)"
  ASSAYED SYSTEM: "SARS-CoV-2 3CLpro (Severe acute respiratory syndrome coronavirus 2)"
  inhibition at 5 µM: "1.78%"
- COMPOUND: "CN1CCC(=C2c3ccccc3C=Cc3ccccc32)CC1 [Cyproheptadine hydrochloride]"
  ASSAYED SYSTEM: "SARS-CoV-2 3CLpro (Severe acute respiratory syndrome coronavirus 2)"
  inhibition at 5 µM: "0.0977%"
- COMPOUND: "Cc1nc2sccn2c(=O)c1CCN1CCC(=C(c2ccc(F)cc2)c2ccc(F)cc2)CC1"
  ASSAYED SYSTEM: "SARS-CoV-2 3CLpro (Severe acute respiratory syndrome coronavirus 2)"
  inhibition at 5 µM: "0.502%"
- COMPOUND: "Cc1cc(C)c(NC(=O)C[C@H](CC(=O)O)c2cccc3ccccc23)c(C(=O)N2CCC3(CCCC3)CC2)c1"
  ASSAYED SYSTEM: "SARS-CoV-2 3CLpro (Severe acute respiratory syndrome coronavirus 2)"
  inhibition at 5 µM: "0.22%"
- COMPOUND: "COc1cc(-c2ccc(=O)[nH]n2)ccc1OC(F)F"
  ASSAYED SYSTEM: "SARS-CoV-2 3CLpro (Severe acute respiratory syndrome coronavirus 2)"
  inhibition at 5 µM: "1.55%"
- COMPOUND: "CN1CCN(CC(=O)N2c3ccccc3C(=O)Nc3cccnc32)CC1 [Pirenzepine dihydrochloride]"
  ASSAYED SYSTEM: "SARS-CoV-2 3CLpro (Severe acute respiratory syndrome coronavirus 2)"
  inhibition at 5 µM: "0.888%"
- COMPOUND: "CN(C)c1nc(N)c(C(=O)NC(=N)N)nc1Cl [5-(N,N-Dimethyl)amiloride hydrochloride]"
  ASSAYED SYSTEM: "SARS-CoV-2 3CLpro (Severe acute respiratory syndrome coronavirus 2)"
  inhibition at 5 µM: "1.33%"
- COMPOUND: "O=C(O)C1CCNCC1"
  ASSAYED SYSTEM: "SARS-CoV-2 3CLpro (Severe acute respiratory syndrome coronavirus 2)"
  inhibition at 5 µM: "-0.611%"
- COMPOUND: "CCCNC(=O)NS(=O)(=O)c1ccc(Cl)cc1 [Chlorpropamide]"
  ASSAYED SYSTEM: "SARS-CoV-2 3CLpro (Severe acute respiratory syndrome coronavirus 2)"
  inhibition at 5 µM: "2.73%"
- COMPOUND: "O=C(O)c1ccccc1Nc1cccc(OCc2ccc3ccccc3n2)c1"
  ASSAYED SYSTEM: "SARS-CoV-2 3CLpro (Severe acute respiratory syndrome coronavirus 2)"
  inhibition at 5 µM: "1.04%"
